// provenance: BindingDB's records for doi:10.3109/14756366.2012.680062

Record set of IC50 for target or system Aminopeptidase N (Sus scrofa, UniProt P15145).

1) CC(C)[C@H](NC(=O)[C@@H](NC(=O)[C@@H](O)CN)c1ccccc1)C(=O)O; 51.5 µM
2) CCC(C)[C@H](NC(=O)[C@H](Cc1ccccc1)NC(=O)[C@@H](O)CN)C(=O)O (stereo partly specified); 30.4 µM
3) NC[C@H](O)C(=O)N[C@@H](Cc1ccccc1)C(=O)N[C@@H](Cc1ccccc1)C(=O)O; 6.5 µM
4) CC(C)C[C@H](NC(=O)[C@@H](O)CN)C(=O)N[C@H](C(=O)O)C(C)C [L-isoserine-L-leucyl-L-valine (16i)]; 5.16 µM
5) CC(C)C[C@H](NC(=O)[C@H](Cc1ccc(O)cc1)NC(=O)[C@@H](O)CN)C(=O)O [L-isoserine-L-tyrosinase-L-leucyl (16l)]; 2.51 µM

// switching to the query molecule
Q) // lookup IC50 for CC(C)[C@H](NC(=O)[C@@H](O)CN)C(=O)N[C@@H](Cc1ccccc1)C(=O)O
A) 30.2 µM

###

Collected log10 of IC50 values appear next to each entry.
# tested.target: UniProt:P15145
# Sequence (P15145 whole entry): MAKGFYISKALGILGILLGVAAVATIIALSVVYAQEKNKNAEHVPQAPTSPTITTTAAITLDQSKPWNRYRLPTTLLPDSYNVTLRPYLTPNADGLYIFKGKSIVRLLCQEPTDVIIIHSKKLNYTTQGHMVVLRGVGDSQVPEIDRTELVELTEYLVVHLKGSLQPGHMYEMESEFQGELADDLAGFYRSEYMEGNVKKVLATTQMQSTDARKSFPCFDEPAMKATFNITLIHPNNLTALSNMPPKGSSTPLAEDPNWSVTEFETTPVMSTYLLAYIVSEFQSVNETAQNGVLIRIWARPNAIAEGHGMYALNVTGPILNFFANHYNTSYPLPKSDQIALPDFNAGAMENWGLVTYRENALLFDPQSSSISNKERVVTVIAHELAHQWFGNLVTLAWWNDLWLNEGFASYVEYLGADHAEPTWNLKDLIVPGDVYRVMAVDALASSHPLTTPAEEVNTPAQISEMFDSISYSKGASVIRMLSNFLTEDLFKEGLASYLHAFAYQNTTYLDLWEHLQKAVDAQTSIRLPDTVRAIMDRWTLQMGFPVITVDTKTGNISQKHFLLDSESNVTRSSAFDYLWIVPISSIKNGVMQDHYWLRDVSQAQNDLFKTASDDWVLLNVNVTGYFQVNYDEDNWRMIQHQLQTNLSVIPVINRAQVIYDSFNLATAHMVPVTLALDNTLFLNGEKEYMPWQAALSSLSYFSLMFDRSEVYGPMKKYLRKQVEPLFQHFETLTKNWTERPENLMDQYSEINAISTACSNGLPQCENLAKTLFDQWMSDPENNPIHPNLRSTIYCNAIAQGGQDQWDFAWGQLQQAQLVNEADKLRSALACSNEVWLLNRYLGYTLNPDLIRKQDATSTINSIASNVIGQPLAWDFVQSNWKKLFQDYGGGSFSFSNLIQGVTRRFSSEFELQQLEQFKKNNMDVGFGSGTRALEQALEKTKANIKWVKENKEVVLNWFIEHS
Note the log scale: values are log10 of IC50 expressed in µM.

Solved cases (3 shown):
1. CC(C)C[C@H](NC(=O)[C@@H](NC(=O)[C@@H](O)CN)c1ccccc1)C(=O)O; 1.06
2. CC(C)C[C@H](NC(=O)[C@@H](O)CN)C(=O)N[C@@H](Cc1ccc(O)cc1)C(=O)O [L-isoserine-L-eucyl-L-tyrosinase (16m)]; 1.24
3. NC[C@H](O)C(=O)N[C@H](C(=O)N[C@@H](Cc1ccccc1)C(=O)O)c1ccccc1; 0.76

Q) // lookup log10 of IC50 for CC(C)[C@H](NC(=O)[C@@H](NC(=O)[C@@H](O)CN)C(C)C)C(=O)O [L-isoserine-L-valine-L-valine (16f)]
A) 1.13
